Tested on: NCI-H1876 complex spheroid growth, % test/control
assay.comment: Anticancer human tumor NCI-H1876 cell line growth inhibition [Asc];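 also: compound exposure lasted 7 days starting three days after seeding; 100% = DMSO vehicle control wells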
assay.setup: second compound 1 µM; first compound 0.316 µM; hits give low values
I'd appreciate it if you could supply viability, T/C values for the items below.
Numbers only, in %.

# batch size: 2; output viability, T/C per entry
1. COc1c(OCCCN2CCOCC2)ccc2c3n(c(=NC(=O)c4cnc(N)nc4)nc12)CCN3 + CNC(C)C(=O)NC1CN(S(=O)(=O)c2cccc(S(=O)(=O)N3CCC4CCC(C(=O)NC(c5ccccc5)c5ccccc5)N4C(=O)C(NC(=O)C(C)NC)C3)c2)CCC2CCC(C(=O)NC(c3ccccc3)c3ccccc3)N2C1=O
2. CNC(C)C(=O)NC1CN(S(=O)(=O)c2cccc(S(=O)(=O)N3CCC4CCC(C(=O)NC(c5ccccc5)c5ccccc5)N4C(=O)C(NC(=O)C(C)NC)C3)c2)CCC2CCC(C(=O)NC(c3ccccc3)c3ccccc3)N2C1=O (configuration not stated) + Cc1c(S(C)(=O)=O)c(-c2cc(F)cc(N3CCN(c4ccc(NS(=O)(=O)c5ccc(NC(CCN6CCC(C(=O)OCCCP(=O)(O)O)CC6)CSc6ccccc6)c(S(=O)(=O)C(F)(F)F)c5)cc4)CC3)c2)c(-c2ccc(Cl)cc2)n1C(C)C

[67.5, 112]

----------
Tested on: NCI-H1876 complex spheroid growth, % test/control
assay.comment: Anticancer human tumor NCI-H1876 cell line growth inhibition [Asc];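 also: compound exposure lasted 7 days starting three days after seeding; 100% = DMSO vehicle control wells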
assay.setup: second compound 0.03 µM; first compound 1 µM; hits give low values
Would you kindly list viability, T/C for each of these compounds?
Numbers only, in %.

compound	assayed.target	viability, T/C [%]
C#Cc1c(F)ccc2cc(O)cc(-c3ncc4c(N5CC6CCC(C5)N6)nc(OCC56CCCN5CC(F)C6)nc4c3F)c12 (centres undefined) + CCN1C(C(=O)NC23CCC(C(=O)O)(CC2)CC3)C(c2cccc(Cl)c2F)C2(C(=O)Nc3cc(Cl)ccc32)C12CCCCC2	NCI-H1876 complex spheroid growth, % test/control	103

Each compound below has a reported value. Please supply its viability, T/C.
1. C=C(F)C(=O)N1CCN(c2nc(OCC3CCCN3C)nc3c2CCN(c2cccc4cccc(Cl)c24)C3)CC1CC#N (centres undefined) + CCN1C(C(=O)NC23CCC(C(=O)O)(CC2)CC3)C(c2cccc(Cl)c2F)C2(C(=O)Nc3cc(Cl)ccc32)C12CCCCC2
2. CNC(C)C(=O)NC1CN(S(=O)(=O)c2cccc(S(=O)(=O)N3CCC4CCC(C(=O)NC(c5ccccc5)c5ccccc5)N4C(=O)C(NC(=O)C(C)NC)C3)c2)CCC2CCC(C(=O)NC(c3ccccc3)c3ccccc3)N2C1=O (centres undefined) + CCN1C(C(=O)NC23CCC(C(=O)O)(CC2)CC3)C(c2cccc(Cl)c2F)C2(C(=O)Nc3cc(Cl)ccc32)C12CCCCC2
3. COc1c(OCCCN2CCOCC2)ccc2c3n(c(=NC(=O)c4cnc(N)nc4)nc12)CCN3 + CCN1C(C(=O)NC23CCC(C(=O)O)(CC2)CC3)C(c2cccc(Cl)c2F)C2(C(=O)Nc3cc(Cl)ccc32)C12CCCCC2

1. 110
2. 97
3. 45.8

----------
For each record, write down the corresponding viability, T/C.
Tested on: NCI-H1876 complex spheroid growth, % test/control
assay.comment: Anticancer human tumor NCI-H1876 cell line growth inhibition [Asc];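 also: compound exposure lasted 7 days starting three days after seeding; 100% = DMSO vehicle control wells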
assay.setup: second compound 0.0316 µM; first compound 0.316 µM; hits give low values
Answers are plain numbers, in %.

compound	observable	value.measured
O=C(c1ccc(F)c(F)c1Nc1ccc(I)cc1F)N1CC(O)([C@@H]2CCCCN2)C1 + Cc1c(S(C)(=O)=O)c(-c2cc(F)cc(N3CCN(c4ccc(NS(=O)(=O)c5ccc(NC(CCN6CCC(C(=O)OCCCP(=O)(O)O)CC6)CSc6ccccc6)c(S(=O)(=O)C(F)(F)F)c5)cc4)CC3)c2)c(-c2ccc(Cl)cc2)n1C(C)C	viability, T/C	85.3
C=CC(=O)N1CCN(c2nc(=O)n(-c3c(C)ccnc3C(C)C)c3nc(-c4c(O)cccc4F)c(F)cc23)C(C)C1 (configuration not stated) + Cc1c(S(C)(=O)=O)c(-c2cc(F)cc(N3CCN(c4ccc(NS(=O)(=O)c5ccc(NC(CCN6CCC(C(=O)OCCCP(=O)(O)O)CC6)CSc6ccccc6)c(S(=O)(=O)C(F)(F)F)c5)cc4)CC3)c2)c(-c2ccc(Cl)cc2)n1C(C)C	viability, T/C	107
C#Cc1c(F)ccc2cc(O)cc(-c3ncc4c(N5CC6CCC(C5)N6)nc(OCC56CCCN5CC(F)C6)nc4c3F)c12 (configuration not stated) + CNC(C)C(=O)NC1CN(S(=O)(=O)c2cccc(S(=O)(=O)N3CCC4CCC(C(=O)NC(c5ccccc5)c5ccccc5)N4C(=O)C(NC(=O)C(C)NC)C3)c2)CCC2CCC(C(=O)NC(c3ccccc3)c3ccccc3)N2C1=O	viability, T/C	101
C=C(F)C(=O)N1CCN(c2nc(OCC3CCCN3C)nc3c2CCN(c2cccc4cccc(Cl)c24)C3)CC1CC#N (configuration not stated) + CNC(C)C(=O)NC1CN(S(=O)(=O)c2cccc(S(=O)(=O)N3CCC4CCC(C(=O)NC(c5ccccc5)c5ccccc5)N4C(=O)C(NC(=O)C(C)NC)C3)c2)CCC2CCC(C(=O)NC(c3ccccc3)c3ccccc3)N2C1=O	viability, T/C	98.2
CCN1CCN(Cc2ccc(Nc3ncc(F)c(-c4cc(F)c5nc(C)n(C(C)C)c5c4)n3)nc2)CC1 + CNC(C)C(=O)NC1CN(S(=O)(=O)c2cccc(S(=O)(=O)N3CCC4CCC(C(=O)NC(c5ccccc5)c5ccccc5)N4C(=O)C(NC(=O)C(C)NC)C3)c2)CCC2CCC(C(=O)NC(c3ccccc3)c3ccccc3)N2C1=O	viability, T/C	129

Would you mind listing viability, T/C for each of the following compounds?
1. COc1c(OCCCN2CCOCC2)ccc2c3n(c(=NC(=O)c4cnc(N)nc4)nc12)CCN3 + CNC(C)C(=O)NC1CN(S(=O)(=O)c2cccc(S(=O)(=O)N3CCC4CCC(C(=O)NC(c5ccccc5)c5ccccc5)N4C(=O)C(NC(=O)C(C)NC)C3)c2)CCC2CCC(C(=O)NC(c3ccccc3)c3ccccc3)N2C1=O
2. CCN1CCN(Cc2ccc(Nc3ncc(F)c(-c4cc(F)c5nc(C)n(C(C)C)c5c4)n3)nc2)CC1 + Cc1c(S(C)(=O)=O)c(-c2cc(F)cc(N3CCN(c4ccc(NS(=O)(=O)c5ccc(NC(CCN6CCC(C(=O)OCCCP(=O)(O)O)CC6)CSc6ccccc6)c(S(=O)(=O)C(F)(F)F)c5)cc4)CC3)c2)c(-c2ccc(Cl)cc2)n1C(C)C
3. C=C(F)C(=O)N1CCN(c2nc(OCC3CCCN3C)nc3c2CCN(c2cccc4cccc(Cl)c24)C3)CC1CC#N (configuration not stated) + Cc1c(S(C)(=O)=O)c(-c2cc(F)cc(N3CCN(c4ccc(NS(=O)(=O)c5ccc(NC(CCN6CCC(C(=O)OCCCP(=O)(O)O)CC6)CSc6ccccc6)c(S(=O)(=O)C(F)(F)F)c5)cc4)CC3)c2)c(-c2ccc(Cl)cc2)n1C(C)C
4. COc1c(OCCCN2CCOCC2)ccc2c3n(c(=NC(=O)c4cnc(N)nc4)nc12)CCN3 + Cc1c(S(C)(=O)=O)c(-c2cc(F)cc(N3CCN(c4ccc(NS(=O)(=O)c5ccc(NC(CCN6CCC(C(=O)OCCCP(=O)(O)O)CC6)CSc6ccccc6)c(S(=O)(=O)C(F)(F)F)c5)cc4)CC3)c2)c(-c2ccc(Cl)cc2)n1C(C)C

[62.5, 117, 102, 49.3]

----------
System: NCI-H1876 complex spheroid growth, % test/control
assay.comment: Anticancer human tumor NCI-H1876 cell line growth inhibition [Asc];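 also: compound exposure lasted 7 days starting three days after seeding; 100% = DMSO vehicle control wells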
assay.setup: second compound 3.16 µM; first compound 0.01 µM; hits give low values
observable: viability, T/C (%)
Give bare numbers, in %.

Use these answered entries as a reference point.
compound	viability, T/C [%]
NC1CCC(NC2CC2c2ccccc2)CC1 (centres undefined) + Cc1c(S(C)(=O)=O)c(-c2cc(F)cc(N3CCN(c4ccc(NS(=O)(=O)c5ccc(NC(CCN6CCC(C(=O)OCCCP(=O)(O)O)CC6)CSc6ccccc6)c(S(=O)(=O)C(F)(F)F)c5)cc4)CC3)c2)c(-c2ccc(Cl)cc2)n1C(C)C	104
O=C(c1ccc(F)c(F)c1Nc1ccc(I)cc1F)N1CC(O)([C@@H]2CCCCN2)C1 + Cc1c(S(C)(=O)=O)c(-c2cc(F)cc(N3CCN(c4ccc(NS(=O)(=O)c5ccc(NC(CCN6CCC(C(=O)OCCCP(=O)(O)O)CC6)CSc6ccccc6)c(S(=O)(=O)C(F)(F)F)c5)cc4)CC3)c2)c(-c2ccc(Cl)cc2)n1C(C)C	98.6
CCN1CCN(Cc2ccc(Nc3ncc(F)c(-c4cc(F)c5nc(C)n(C(C)C)c5c4)n3)nc2)CC1 + Cc1c(S(C)(=O)=O)c(-c2cc(F)cc(N3CCN(c4ccc(NS(=O)(=O)c5ccc(NC(CCN6CCC(C(=O)OCCCP(=O)(O)O)CC6)CSc6ccccc6)c(S(=O)(=O)C(F)(F)F)c5)cc4)CC3)c2)c(-c2ccc(Cl)cc2)n1C(C)C	104

viability, T/C lookup needed for CNC(C)C(=O)NC1CN(S(=O)(=O)c2cccc(S(=O)(=O)N3CCC4CCC(C(=O)NC(c5ccccc5)c5ccccc5)N4C(=O)C(NC(=O)C(C)NC)C3)c2)CCC2CCC(C(=O)NC(c3ccccc3)c3ccccc3)N2C1=O (centres undefined) + Cc1c(S(C)(=O)=O)c(-c2cc(F)cc(N3CCN(c4ccc(NS(=O)(=O)c5ccc(NC(CCN6CCC(C(=O)OCCCP(=O)(O)O)CC6)CSc6ccccc6)c(S(=O)(=O)C(F)(F)F)c5)cc4)CC3)c2)c(-c2ccc(Cl)cc2)n1C(C)C , thanks.
87.2
